B1: LINE1-mini (parent)
chain: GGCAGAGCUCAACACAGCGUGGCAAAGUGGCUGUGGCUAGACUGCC

Variants of: B1
Experiment: self-cleavage, relative activity (ratio to wild type); higher = more cleavage; in vitro, sequencing; the parent is a self-cleaving ribozyme
Hi there, I'd appreciate the recorded self-cleavage for every entry that follows.

> print(dat)
   variant.code        measure  reported.measurement
1      G2A G17A  self-cleavage                   0.2
2       C3G A4G  self-cleavage                   0.2

Okay, next one:
variant U32C A41U , self-cleavage observed: 0.2

Where these numbers come from: the RNAGym collection of RNA variant scans (doi:10.7554/elife.90254)
